system: Candida albicans; experiment: Antifungal activity against Candida albicans AN 1994 by broth dilution method; assay type: functional
Listing of recorded MIC by entry.

In the examples that follow, each entry is paired with its recorded MIC.
C[C@H](N)c1nc2ccccc2n1Cc1cccc(Cl)c1
16 µg/mL
Cc1cccc(Cn2c([C@H](C)N)nc3ccccc32)c1
128 µg/mL

Task item: Would you mind telling me what MIC value was observed for CC(C)[C@H](N)c1nc2ccccc2n1Cc1cccc(F)c1 ?
Reply: 2 µg/mL

====

test system: Candida albicans; experiment: Antifungal activity against Candida albicans SC5314 infected in HeLa cells after 5 days by fluorescein diacetate assay; type: functional, organism-based; conditions: Candida albicans, SC5314, HeLa, 120 h; read-out: IC50
Listing of recorded pIC50 by entry.
pIC50 here: minus log base 10 of the concentration, concentration in moles per litre.

In the examples that follow, each entry is paired with its recorded pIC50.
CCC[C@H](N)c1nc2ccccc2n1Cc1ccc(Cl)cc1
5.70
CC(C)C[C@H](N)c1nc2ccccc2n1Cc1ccc(Cl)cc1
5.40
CC(C)[C@H](N)c1nc2ccccc2n1Cc1cccc(F)c1
5.66
CC(C)[C@H](N)c1nc2ccccc2n1Cc1cccc(Cl)c1
6.12
CC(C)(N)c1nc2ccccc2n1Cc1ccc(Cl)cc1
5.30
C[C@@H]1[C@H](O)[C@@H](C)/C=C/C=C/C=C/C=C/C=C/C=C/C=C/[C@H](O[C@@H]2O[C@H](C)[C@@H](O)[C@H](N)[C@@H]2O)C[C@@H]2O[C@](O)(C[C@@H](O)C[C@@H](O)[C@H](O)CC[C@@H](O)C[C@@H](O)CC(=O)O[C@H]1C)C[C@H](O)[C@H]2C(=O)O [AMPHOTERICIN B]
6.30
Cc1cccc(Cn2c([C@@H](N)C(C)C)nc3ccccc32)c1
5.48
C[C@H](N)c1nc2ccccc2n1Cc1cccc(Cl)c1
5.11

// next item, pIC50 requested
Task item: Would you mind telling me what pIC50 value was observed for CCC[C@H](N)c1nc2ccccc2n1Cc1cccc(C)c1 ?
Reply: 5.70

====

Listing of recorded log10 of MIC by entry.
test system: Candida albicans; test: Antifungal activity against Candida albicans SCS 71865 L by broth dilution method; type: functional
All values: base-10 log of MIC in µg/mL.

Cc1cccc(Cn2c([C@H](C)N)nc3ccccc32)c1
2.11
CC(C)[C@H](N)c1nc2ccccc2n1Cc1cccc(F)c1
1.20
C[C@H](N)c1nc2ccccc2n1Cc1cccc(Cl)c1
0.90
OC(Cn1cncn1)(Cn1cncn1)c1ccc(F)cc1F
-0.90
Cc1cccc(Cn2c([C@@H](N)C(C)C)nc3ccccc32)c1
1.51

Task item: Would you mind telling me what log10 of MIC value was observed for CC(C)[C@H](N)c1nc2ccccc2n1Cc1cccc(Cl)c1 ?
Reply: 1.81

====

Listing of recorded MIC by entry.
system: Nakaseomyces glabratus; experiment: Antifungal activity against Candida glabrata ATCC 90030 by broth dilution method; format: functional
Report the value in µg/mL with no unit label.

In the examples that follow, each entry is paired with its recorded MIC.
CC(C)[C@H](N)c1nc2ccccc2n1Cc1cccc(F)c1
8
OC(Cn1cncn1)(Cn1cncn1)c1ccc(F)cc1F [FLUCONAZOLE]
0.125
Cc1cccc(Cn2c([C@@H](N)C(C)C)nc3ccccc32)c1
0.25
C[C@H](N)c1nc2ccccc2n1Cc1cccc(Cl)c1
8
CC(C)[C@H](N)c1nc2ccccc2n1Cc1cccc(Cl)c1
0.125

Task item: Would you mind telling me what MIC value was observed for Cc1cccc(Cn2c([C@H](C)N)nc3ccccc32)c1 ?
Reply: 64

====

test system: Candida albicans; assay: Antifungal activity against Candida albicans AN 1994 by broth dilution method; format: functional
propertyName: MIC (µg/mL)
Report the value in µg/mL with no unit label.

In the examples that follow, each entry is paired with its recorded MIC.
OC(Cn1cncn1)(Cn1cncn1)c1ccc(F)cc1F [FLUCONAZOLE]
128
Cc1cccc(Cn2c([C@@H](N)C(C)C)nc3ccccc32)c1
32

// next item, MIC requested
Task item: Would you mind telling me what MIC value was observed for CC(C)[C@H](N)c1nc2ccccc2n1Cc1cccc(Cl)c1 ?
Reply: 16

Attribution: ChEMBL document CHEMBL1828627
